Biological target: Ros1 enzyme (Homo sapiens)
Construct: 0.5 μg/ml Ros1 enzyme
Sequence (P08922 28-2347): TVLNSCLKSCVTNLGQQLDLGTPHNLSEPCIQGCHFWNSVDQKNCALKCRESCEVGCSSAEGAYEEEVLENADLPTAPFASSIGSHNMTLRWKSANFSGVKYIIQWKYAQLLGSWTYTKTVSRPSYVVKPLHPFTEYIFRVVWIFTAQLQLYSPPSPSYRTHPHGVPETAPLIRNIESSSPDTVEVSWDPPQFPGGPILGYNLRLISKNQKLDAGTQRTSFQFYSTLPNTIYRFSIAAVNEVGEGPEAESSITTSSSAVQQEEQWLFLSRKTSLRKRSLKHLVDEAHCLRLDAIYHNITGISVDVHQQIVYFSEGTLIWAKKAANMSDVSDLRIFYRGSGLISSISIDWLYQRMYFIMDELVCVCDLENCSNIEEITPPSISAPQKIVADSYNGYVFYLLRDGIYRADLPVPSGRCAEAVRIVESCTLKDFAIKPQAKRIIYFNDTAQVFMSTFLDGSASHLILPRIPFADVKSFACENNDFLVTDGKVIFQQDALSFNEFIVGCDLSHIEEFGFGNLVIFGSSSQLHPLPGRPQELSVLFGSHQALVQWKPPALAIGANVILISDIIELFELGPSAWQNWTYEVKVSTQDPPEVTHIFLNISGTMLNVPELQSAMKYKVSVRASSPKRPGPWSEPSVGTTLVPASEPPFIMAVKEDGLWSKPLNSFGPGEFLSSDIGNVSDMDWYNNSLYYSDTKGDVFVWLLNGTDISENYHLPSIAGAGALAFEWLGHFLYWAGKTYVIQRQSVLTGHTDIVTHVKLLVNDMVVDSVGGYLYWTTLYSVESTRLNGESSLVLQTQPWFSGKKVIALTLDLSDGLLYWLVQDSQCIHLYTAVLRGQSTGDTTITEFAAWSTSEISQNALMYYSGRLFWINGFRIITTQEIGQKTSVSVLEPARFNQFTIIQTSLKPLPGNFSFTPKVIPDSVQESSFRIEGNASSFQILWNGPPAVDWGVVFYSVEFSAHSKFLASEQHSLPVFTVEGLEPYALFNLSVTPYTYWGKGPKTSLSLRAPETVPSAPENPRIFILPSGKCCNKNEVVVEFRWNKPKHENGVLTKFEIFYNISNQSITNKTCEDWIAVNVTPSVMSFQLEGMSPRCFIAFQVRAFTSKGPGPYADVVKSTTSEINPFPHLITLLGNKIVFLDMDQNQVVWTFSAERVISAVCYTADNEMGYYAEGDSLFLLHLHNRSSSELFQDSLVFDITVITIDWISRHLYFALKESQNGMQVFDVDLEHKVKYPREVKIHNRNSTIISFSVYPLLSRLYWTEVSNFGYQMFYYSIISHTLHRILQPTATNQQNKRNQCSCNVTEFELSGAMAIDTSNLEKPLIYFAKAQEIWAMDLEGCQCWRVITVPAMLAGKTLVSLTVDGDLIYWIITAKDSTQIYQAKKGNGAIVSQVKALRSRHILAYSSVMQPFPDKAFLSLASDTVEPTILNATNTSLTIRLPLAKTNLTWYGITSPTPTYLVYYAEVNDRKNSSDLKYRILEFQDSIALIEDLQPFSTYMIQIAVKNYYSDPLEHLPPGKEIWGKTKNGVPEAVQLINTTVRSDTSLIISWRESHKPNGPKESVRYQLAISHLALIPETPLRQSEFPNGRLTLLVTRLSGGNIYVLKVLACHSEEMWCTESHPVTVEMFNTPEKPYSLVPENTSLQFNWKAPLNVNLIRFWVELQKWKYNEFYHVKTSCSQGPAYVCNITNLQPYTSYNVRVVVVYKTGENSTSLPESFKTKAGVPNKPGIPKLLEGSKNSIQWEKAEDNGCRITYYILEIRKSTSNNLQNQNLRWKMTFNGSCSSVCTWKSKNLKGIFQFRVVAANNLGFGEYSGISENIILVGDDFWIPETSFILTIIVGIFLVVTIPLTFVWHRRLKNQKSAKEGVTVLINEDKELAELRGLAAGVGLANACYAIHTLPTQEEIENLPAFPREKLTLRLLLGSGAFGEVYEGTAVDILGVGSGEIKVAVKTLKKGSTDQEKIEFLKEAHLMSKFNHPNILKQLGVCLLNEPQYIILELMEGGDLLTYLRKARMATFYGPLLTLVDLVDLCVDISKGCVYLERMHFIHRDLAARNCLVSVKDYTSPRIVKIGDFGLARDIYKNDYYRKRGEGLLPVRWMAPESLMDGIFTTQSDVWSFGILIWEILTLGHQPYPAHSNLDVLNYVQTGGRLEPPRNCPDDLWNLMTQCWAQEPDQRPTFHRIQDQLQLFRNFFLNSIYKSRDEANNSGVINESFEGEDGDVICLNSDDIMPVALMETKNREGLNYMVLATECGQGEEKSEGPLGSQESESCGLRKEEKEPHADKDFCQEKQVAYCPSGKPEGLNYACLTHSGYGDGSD
Assay: Ros1 enzymatic assay
Format: biochemical
Settings: Ros1 enzymatic assay; read-out: ROS1 pIC50 (converted)
Assign labels as follows, please: class 1 for IC50 below 60 nM; class 0 for IC50 equal to or exceeding 60 nM.

- CC(C)c1ccc(COc2ccc(-c3c(-c4ccncc4)nn4c3C(=O)N(CCN)CC4)cc2)cc1: class 0
- CC(C)c1ccc(COc2ccc(-c3c(-c4ccncc4)nn4c3C(=O)N(CCS(C)(=O)=O)CC4)cc2)cc1: class 1
- CC(C)c1ccc(COc2ccc(-c3c(-c4ccncn4)nn4c3C(=O)N(CCOCCO)CC4)cc2)cc1: class 0
- CC(C)c1ccc(COc2ccc(-c3c(-c4ccncc4)nn4c3C(=O)NCC4)cc2Cl)cc1: class 0
- CC(C)(C#N)c1ccc(COc2ccc(-c3c(-c4ccncc4)nn4c3C(=O)NCC4)cc2)cc1: class 0
- O=C1NCCn2nc(-c3ccncc3)c(-c3ccc(OCC#Cc4ccccc4)cc3)c21: class 0
- CC(C)c1ccc(COc2ccc(-c3c(-c4ccncc4)nn4c3C(=O)N(CCO)CC4)cc2)cc1O: class 1

Data provenance is patent US10280170B2.
